Below is a list of entries, each paired with its recorded cell viability value.
system: NOMO1; assay: cell viability relative to DMSO control; higher = less cytotoxic; details: RPMI 5 mM glucose + 10% FBS; 48 h; 0.0632 µM
readout-kind: cell viability

compound	readout-kind	result
NC(=O)c1cccc2nc(-c3ccc([C@H]4CCCN4)cc3F)[nH]c12	cell viability	125%
C[S+](=O)([O-])c1cccc(CNc2nc(Nc3ccc4c(c3)CCC(=O)N4)ncc2C(F)(F)F)c1	cell viability	108%
Cc1cc(C(=O)N2CCN(c3cccc(Cl)c3)CC2)n(-c2ccccc2)n1	cell viability	94.5%
COc1ccc2[nH]c([S+]([O-])Cc3ncc(C)c(OC)c3C)nc2c1 (configuration not stated)	cell viability	80.7%
CC/1=C(/C(CC(=O)N1)C2=CC=C(C=C2)C(F)(F)F)C(=O)NC3=C(F)C=C4[NH]N=CC4=C3 (configuration not stated)	cell viability	89.6%
C[C@]12CC[C@@H]3c4ccc(O)cc4CC[C@H]3[C@@H]1C[C@@H](O)[C@@H]2O	cell viability	114%
Nc1nc(N)c2nc(-c3cccc(O)c3)c(-c3cccc(O)c3)nc2n1	cell viability	112%
CN[C@@H](C)C(=O)N[C@H]1CN(C(=O)CC(C)C)CC[C@H]2CC[C@@H](C(=O)NC(c3ccccc3)c3ccccc3)N2C1=O	cell viability	96.9%
O=C(Nc1ncc(SCCN2CCCC2)s1)[C@]1(c2ccc([S+](=O)([O-])C3CC3)cc2)C[C@H]1C1CCCCC1	cell viability	123%
O=C(O)/C=C/c1ccc(O)c(O)c1	cell viability	97.9%
C[C@@H](NC(=O)c1ncnc(N)c1Cl)c1ncc(C(=O)Nc2cc(C(F)(F)F)c(Cl)cn2)s1	cell viability	125%
CC[C@@]1(O)C(=O)OCC/2=C1/C=C3\N(CC4=CC5=CC(=CC=C5N=C34)O)C2=O	cell viability	113%
COC[C@H](c1ccc(C(F)(F)F)cc1)N1CCN(C2(C)CCN(C(=O)c3c(C)ncnc3C)CC2)C[C@H]1C.O=C(O)/C=C\C(=O)O	cell viability	93.8%
Oc1cccc(-c2nc(N3CCOCC3)c3oc4ncccc4c3n2)c1	cell viability	112%
Cc1cc(Nc2cc(CN3CCOCC3)c3nc(C)c(Cc4ccc(Cl)cc4F)n3n2)[nH]n1	cell viability	95.4%
CCC(=C/[C@H](C)C/C=C/C(C)=C/[C@@H](C)C(=O)[C@@H](C)[C@H](O)[C@@H](C)C/C(C)=C/C(=O)O)/C=C/[C@@H]1OC(=O)C=C[C@@H]1C	cell viability	114%
CNC[C@H](O)c1cccc(O)c1	cell viability	93%

====

test system: SEM cells; assay: cell viability relative to DMSO control; higher = less cytotoxic; conditions: HPLM + 10% dialyzed FBS; 48 h; 0.569 µM
readout-kind: cell viability (%)

compound	readout-kind	numeric-readout
CN1CCN2c3ncccc3Cc3ccccc3C2C1 (stereo not drawn)	cell viability	22
Cc1ccc([S+](=O)([O-])Nc2nc3ccccc3nc2Nc2ccc3nsnc3c2)cc1	cell viability	87.8
CCCCCCOC(=O)/N=C(/N)c1ccc(NCc2nc3cc(C(=O)N(CCC(=O)OCC)c4ccccn4)ccc3n2C)cc1	cell viability	129
CN1\C(=C(\O)C2=C(C=CC=C2)[S+]1([O-])=O)C(=O)NC3=CC=CC=N3	cell viability	7.98
CC[C@@]1(O)C(=O)OCC/2=C1/C=C3\N(CC4=CC5=CC(=CC=C5N=C34)O)C2=O	cell viability	18.9
O=C(Nc1ncc(SCCN2CCCC2)s1)[C@]1(c2ccc([S+](=O)([O-])C3CC3)cc2)C[C@H]1C1CCCCC1	cell viability	109
COc1ccc2c(c1)c(CC(=O)OCC(=O)O)c(C)n2C(=O)c1ccc(Cl)cc1	cell viability	119
O=C(O)CCn1c2c(c3ccccc31)C[C@H](N[S+](=O)([O-])c1ccc(F)cc1)CC2	cell viability	96.8

This collection of values is drawn from the supplement of paper PMC11451515.
